tested-system: Dual specificity protein kinase CLK1 (Homo sapiens) (UniProt P49759)
Sequence (P49759 whole entry, looked up): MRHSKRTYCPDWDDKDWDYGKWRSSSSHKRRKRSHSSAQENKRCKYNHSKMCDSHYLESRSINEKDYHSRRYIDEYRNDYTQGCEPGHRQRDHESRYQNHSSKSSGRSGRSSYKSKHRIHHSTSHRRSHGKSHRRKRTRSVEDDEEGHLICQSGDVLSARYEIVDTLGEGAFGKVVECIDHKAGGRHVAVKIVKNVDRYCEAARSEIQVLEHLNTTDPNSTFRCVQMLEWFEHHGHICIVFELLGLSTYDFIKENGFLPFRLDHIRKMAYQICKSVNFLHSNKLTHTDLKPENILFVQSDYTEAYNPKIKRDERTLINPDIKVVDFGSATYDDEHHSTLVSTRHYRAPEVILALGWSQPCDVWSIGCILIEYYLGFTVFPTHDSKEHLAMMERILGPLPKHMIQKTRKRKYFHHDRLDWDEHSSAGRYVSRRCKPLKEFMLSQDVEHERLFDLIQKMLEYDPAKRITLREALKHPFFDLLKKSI
assay-method-text: Reaction Biology data for inhibitors of CLK1: Probe SAR
experimental-context: Reaction Biology CLK1 kinase assay, 10 uM ATP; series mostly up to 10 µM
Text: Alternative splicing of pre-mRNAs plays a major role in the regulation of eukaryotic gene expression. Alternative splicing is now thought to be one of the primary reasons for the complexity of higher organisms leading to an average of three protein isoforms per gene. Aberrant splicing can lead to a number of diseases and is known to play a role in rare genetic diseases such as progeria syndrome. […]
The source made the active and inactive calls. Calls come from the whole dose curve; as a rule, active = well fitted inhibition curve with a large enough effect; inactive = flat fitted curve, though single readings scatter.
Reply using exactly one outcome from active, inactive

INSERT INTO results (cpd_smiles, group_label) VALUES
  ('Clc1ccc(CNc2nccc(-c3ccc4[nH]ncc4c3)n2)cc1Cl', 'active'),
  ('Clc1ccc(CNc2ncncc2-c2ccc3c(c2)OCO3)cc1', 'active'),
  ('COc1ccc(-c2ccnc(NCc3ccc(Cl)cc3)n2)cc1', 'active');

## Input Status in this test for "c1cncc(CNc2ccnc(-c3ccc4[nH]ncc4c3)n2)c1" ?
## Output active

## Input GET /call?item= "c1cncc(CNc2ccnc(-c3ccc4cn[nH]c4c3)n2)c1" returns the recorded outcome of this test.
## Output active

## Input Record request — test call for "O=[N+]([O-])c1cc(Nc2nccc(-c3ccc4c(c3)OCO4)n2)cc(C(F)(F)F)c1"
## Output active

## Input Which result was noted for this compound in the test: "COc1ccc(-c2ccnc(NCc3ccc(Cl)c(Cl)c3)n2)cc1"
## Output active

## Input Please let me know the test result on file for "COc1ccc(-c2ccnc(NCc3ccc(Cl)c(Cl)c3)n2)cc1OC" .
## Output inactive

## Input Called result for "Clc1ccc(CNc2nccc(-c3ccc4c(c3)OCO4)n2)cc1Cl"
## Output active

## Input For "c1cncc(CNc2nccc(-c3ccc4c(c3)OCO4)n2)c1" , what call appears in the results of this test?
## Output active

## Input What outcome does the record of this test show for "COc1cccc(-c2ccnc(NCc3ccc(Cl)cc3)n2)c1" ?
## Output inactive

Data origin, for the record: PubChem BioAssay AID624047
